tested on: S. aureus DSM 20231; test: Bliss interaction score (quartile over a dose matrix) (fitness difference); higher = more antagonism (negative = synergy);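 note: first quartile when negative (synergy) and third quartile when positive (antagonism)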
Could you please report measured Bliss interaction score for the items listed next?
Respond using a number only.

Per the record, CC[C@H]1OC(=O)[C@H](C)[C@@H](O[C@H]2C[C@@](C)(OC)[C@@H](O)[C@H](C)O2)[C@H](C)[C@@H](O[C@@H]2O[C@H](C)C[C@H](N(C)C)[C@H]2O)[C@](C)(O)C[C@@H](C)C(=O)[C@H](C)[C@@H](O)[C@]1(C)O [Erythromycin] + CO[C@@H]1[C@@H](OC(N)=O)[C@@H](O)[C@H](Oc2ccc3c(O)c(NC(=O)c4ccc(O)c(CC=C(C)C)c4)c(=O)oc3c2C)OC1(C)C [Novobiocin] has Bliss interaction score of -0.0443

Item: CN(Cc1cnc2nc(N)nc(N)c2n1)c1ccc(C(=O)N[C@@H](CCC(=O)O)C(=O)O)cc1 [Methotrexate] + COc1cc(Cc2cnc(N)nc2N)cc(OC)c1OC [Trimethoprim] | Bliss interaction score: -0.242

----------
tested on: S. aureus Newman; test: Bliss interaction score (quartile over a dose matrix) (fitness difference); higher = more antagonism (negative = synergy)
readout-name: Bliss interaction score
Output: the number by itself.

get_value(item= CC[C@H]1OC(=O)[C@H](C)[C@@H](O[C@H]2C[C@@](C)(OC)[C@@H](O)[C@H](C)O2)[C@H](C)[C@@H](O[C@@H]2O[C@H](C)C[C@H](N(C)C)[C@H]2O)[C@](C)(O)C[C@@H](C)C(=O)[C@H](C)[C@@H](O)[C@]1(C)O [Erythromycin] + COc1cc(Cc2cnc(N)nc2N)cc(OC)c1OC [Trimethoprim] , readout=Bliss interaction score) returns 0.0715

What the record says about CC[C@H]1OC(=O)[C@H](C)[C@@H](O[C@H]2C[C@@](C)(OC)[C@@H](O)[C@H](C)O2)[C@H](C)[C@@H](O[C@@H]2O[C@H](C)C[C@H](N(C)C)[C@H]2O)[C@](C)(O)C[C@@H](C)C(=O)[C@H](C)[C@@H](O)[C@]1(C)O [Erythromycin] + CN[C@@H]1[C@H](O)[C@H](NC)[C@H]2O[C@@]3(O)C(=O)C[C@@H](C)O[C@H]3O[C@@H]2[C@H]1O [Spectinomycin] : Bliss interaction score is -0.172

GET /value?item= CO[C@H]1/C=C/O[C@@]2(C)Oc3c(C)c(O)c4c(O)c(c(/C=N/N5CCN(C)CC5)c(O)c4c3C2=O)NC(=O)/C(C)=C\C=C\[C@H](C)[C@H](O)[C@@H](C)[C@@H](O)[C@@H](C)[C@H](OC(C)=O)[C@@H]1C [Rifampicin] + CC[C@H]1OC(=O)[C@H](C)C(=O)[C@H](C)[C@@H](O[C@@H]2O[C@H](C)C[C@H](N(C)C)[C@H]2O)[C@](C)(OC)C[C@@H](C)C(=O)[C@H](C)[C@H]2N(CCCCn3cnc(-c4cccnc4)c3)C(=O)O[C@]12C [Telithromycin] &field=Bliss interaction score returns 0.0171

----------
tested on: S. aureus DSM 20231; assay: Bliss interaction score (quartile over a dose matrix) (fitness difference); higher = more antagonism (negative = synergy); conditions: main component drawn
Label scheme for Bliss interaction score: lower than -0.02 is 0 (no), -0.02 and above is 1 (yes).

Please indicate if the recorded Bliss interaction score for CC[C@H](C)[C@H](N)C1=N[C@H](C(=O)N[C@@H](CC(C)C)C(=O)N[C@H](CCC(=O)O)C(=O)N[C@H](C(=O)N[C@H]2CCCCNC(=O)[C@H](CC(N)=O)NC(=O)[C@@H](CC(=O)O)NC(=O)[C@H](Cc3cnc[nH]3)NC(=O)[C@@H](Cc3ccccc3)NC(=O)[C@H]([C@@H](C)CC)NC(=O)[C@@H](CCCN)NC2=O)[C@@H](C)CC)CS1 [Bacitracin] + CC1=C\[C@@H](O)CC(=O)Cc2nc(co2)C(=O)N2CCC=C2C(=O)O[C@H](C(C)C)[C@H](C)/C=C/C(=O)NC\C=C\1 [Virginiamycin M1] meets or exceeds -0.02.
0 (no)

Is Bliss interaction score for CC[C@H](C)[C@H](N)C1=N[C@H](C(=O)N[C@@H](CC(C)C)C(=O)N[C@H](CCC(=O)O)C(=O)N[C@H](C(=O)N[C@H]2CCCCNC(=O)[C@H](CC(N)=O)NC(=O)[C@@H](CC(=O)O)NC(=O)[C@H](Cc3cnc[nH]3)NC(=O)[C@@H](Cc3ccccc3)NC(=O)[C@H]([C@@H](C)CC)NC(=O)[C@@H](CCCN)NC2=O)[C@@H](C)CC)CS1 [Bacitracin] + O=C(O[C@@H]1Cc2c(O)cc(O)cc2O[C@@H]1c1cc(O)c(O)c(O)c1)c1cc(O)c(O)c(O)c1 [EGCG] at or above -0.02?
0 (no)

Decide: is the reported value of Bliss interaction score for CC[C@H](C)[C@H](N)C1=N[C@H](C(=O)N[C@@H](CC(C)C)C(=O)N[C@H](CCC(=O)O)C(=O)N[C@H](C(=O)N[C@H]2CCCCNC(=O)[C@H](CC(N)=O)NC(=O)[C@@H](CC(=O)O)NC(=O)[C@H](Cc3cnc[nH]3)NC(=O)[C@@H](Cc3ccccc3)NC(=O)[C@H]([C@@H](C)CC)NC(=O)[C@@H](CCCN)NC2=O)[C@@H](C)CC)CS1 [Bacitracin] + Clc1ccc(COC(Cn2ccnc2)c2ccc(Cl)cc2Cl)c(Cl)c1 [Miconazole] equal to or greater than -0.02?
0 (no)

Is reported Bliss interaction score greater than or equal to -0.02 here: CC[C@H]1OC(=O)[C@H](C)[C@@H](O[C@H]2C[C@@](C)(OC)[C@@H](O)[C@H](C)O2)[C@H](C)[C@@H](O[C@@H]2O[C@H](C)C[C@H](N(C)C)[C@H]2O)[C@](C)(O)C[C@@H](C)C(=O)[C@H](C)[C@@H](O)[C@]1(C)O [Erythromycin] + CC(C1CCC(C(O1)OC2C(CC(C(C2O)OC3C(C(C(CO3)(C)O)NC)O)N)N)N)NC
1 (yes)

Record CC[C@H](C)[C@H](N)C1=N[C@H](C(=O)N[C@@H](CC(C)C)C(=O)N[C@H](CCC(=O)O)C(=O)N[C@H](C(=O)N[C@H]2CCCCNC(=O)[C@H](CC(N)=O)NC(=O)[C@@H](CC(=O)O)NC(=O)[C@H](Cc3cnc[nH]3)NC(=O)[C@@H](Cc3ccccc3)NC(=O)[C@H]([C@@H](C)CC)NC(=O)[C@@H](CCCN)NC2=O)[C@@H](C)CC)CS1 [Bacitracin] + Cc1cc(NS(=O)(=O)c2ccc(N)cc2)no1 [Sulfamethoxazol] ; criterion: Bliss interaction score no lower than -0.02. Met?
0 (no)
